experiment: A High-Content qHTS Against Drug Library for the Identification of Small Molecules that Inhibit DYT1 Early Onset Primary Dystonia-Associated Cell Pathology (AID 1645839); conditions: HEK293 Flp-In EGFP-delE TorsinA, punctate imaging, 48 h; series mostly up to 46.1 µM
Inconclusive results are not listed. Active and inactive are the calls of the source. Calls come from the whole dose curve.
Your reply should match one of these outcome classes. True (active), False (inactive)

C[C@H]1C[C@H](O)c2ccsc2S1(=O)=O; False

API: the following record is the query input.
Exercise: Assay outcome for Cc1cccc(C)c1NC(=O)c1ccc(N)cc1 : what was it?
Solution: False

* * *

Provide the reported max response of each item.
system: NIH3T3; experiment: Cytotoxic Profiling of Annotated Libraries Using Quantitative High-Throughput Screening (AID 1296008); settings: Five cell lines viability, CellTiter-Glo ATP luminescence, 48-72 h; hits give low values; note: % is set by controls: 0 for no effect and ±100 for the full control effect; nearly all actives have a fitted effect of over 60% in size
Records with an inconclusive call do not appear.
Give bare numbers, in %.

Known results for compounds:
[O-][n+]1cccc(/C(Cl)=N/OC[C@@H](O)CN2CCCCC2)c1; 0.672
O=C(O)Cc1ccc(OCCNC[C@H](O)c2ccccc2)cc1; 0.971
O=C(O)c1ccc(OCCN2CCCCC2)cc1; 1.34
CC(=O)OCC(=O)[C@@]1(O)CCC2C3CCC4=CC(=O)CC[C@]4(C)C3[C@@H](O)C[C@@]21C (stereo partly specified); 0.645

Quick one: give me max response for each item below, same order please.
1. CCCCC(CC)COC(=O)c1ccccc1C(=O)O (stereo unspecified)
2. O=C(c1ccco1)N1CCNCC1
3. Cc1onc(-c2ccccc2)c1C(=O)Cl
4. COC(=O)c1cc(Cl)ccc1NS(=O)(=O)C(F)(F)F

Solution:
1. -2.08
2. 4.52
3. 4.1
4. -7.02

Quick one: give me max response for each item below, same order please.
1. CN1Cc2cc(C(=O)N3CCC(C4CCNCC4)CC3)ccc2N[C@@H](CC(=O)O)C1=O
2. Cc1cc(O)c2c(O)c3c(O)cccc3cc2c1
3. Cc1ccc(/C=N/n2c(-c3ccccc3)csc2=S)cc1

Solution:
1.44
-2.19
-3.86

Origin of measurements: PubChem BioAssay (NCATS)
